Hello, the source for this data is paper PMC12040169, in case you need it.

test: in vitro; conditions: human, hela cells, % viability
Field: viability at 28.5 h, 10 µM. Provide a value for each of the molecules that follow.

Entry O=C(NCCCN1CCOCC1)C1CCCN1S(=O)(=O)c1ccc(Cl)cc1 (stereo not drawn) [CBK269944] : reported viability at 28.5 h, 10 µM = ?
92.1%

Entry COc1cccc(N2CCN(CCCOc3ccc(F)cc3)CC2)n1 [CBK010355F] : reported viability at 28.5 h, 10 µM = ?
94.6%

Entry CN(C)CCN(Cc1cc2cc3c(cc2[nH]c1=O)OCO3)C(=S)Nc1ccc(F)cc1 [CBK135186] : reported viability at 28.5 h, 10 µM = ?
91.2%

Entry CN(C)c1ccc(/C=C/CN2CCN(c3ccc([N+](=O)[O-])cc3)CC2)cc1 [CBK261904] : reported viability at 28.5 h, 10 µM = ?
96.9%

Entry CN(C)c1nc(N)nc(COc2ccccc2F)n1 [CBK288236] : reported viability at 28.5 h, 10 µM = ?
105%

Entry Nc1ccc(Oc2ccc3nc4c5cc(I)ccc5c5ccc(I)cc5c4nc3c2)cc1 [CBK261978] : reported viability at 28.5 h, 10 µM = ?
87.6%

Entry CCOC(=O)C1(C2CCCCC2)CCN(C(=O)C2CCN(C)CC2)CC1 [CBK136948] : reported viability at 28.5 h, 10 µM = ?
92.7%

Entry CN(C)CCN1CCN(c2nc(-c3ccc4[nH]ccc4c3)cn3ccnc23)CC1 [CBK036587] : reported viability at 28.5 h, 10 µM = ?
102%

Entry CC(=O)Nc1cccc(-c2cncc(NC3CCC(O)CC3)n2)c1 (stereo not drawn) [CBK065404] : reported viability at 28.5 h, 10 µM = ?
88.6%

---

Field: viability at 28.5 h, 10 µM. Provide a value for each of the compounds that follow.
test: in vitro; conditions: human, hela cells, % viability
All answers are understood in %, so give the number only.

Entry `c1cnc2c(-c3cn4ccnc4c(NC4CC4)n3)cccc2c1` : reported viability at 28.5 h, 10 µM = ?
111

Entry CCN(CC)CCN(C(=O)NCCc1c[nH]c2ccc(OC)cc12)C(C)c1ccc(OC)c(OC)c1 (stereo not shown) : reported viability at 28.5 h, 10 µM = ?
90.4

Entry Cn1ccnc1C1(O)CC2CCC(C1)N2C(=O)NC1CCCCC1 (stereo not shown) : reported viability at 28.5 h, 10 µM = ?
88.5

Entry `COC(=O)c1c(NC(=S)Nc2cnccn2)sc2c1CCC2` : reported viability at 28.5 h, 10 µM = ?
90.3

Entry CN1CCC(N(C)C(=O)Nc2ccc3[nH]ccc3c2)C1 (stereo not shown) : reported viability at 28.5 h, 10 µM = ?
92.2

Entry `Clc1ccccc1-c1nccnc1OC(c1ccccc1)c1ccccc1` : reported viability at 28.5 h, 10 µM = ?
92.9

Entry `CC(C)[C@H](CO)n1c(=O)[nH]c2ncc(-c3cccc(CO)c3)nc21` : reported viability at 28.5 h, 10 µM = ?
96.1

Entry `Cc1cc(C)n(CC(=O)Nc2ccccc2-n2ccnc2)n1` : reported viability at 28.5 h, 10 µM = ?
101

Entry O=C(c1ccc2[nH]c(=O)[nH]c2c1)N1CCCC2(CCN(Cc3ccccc3)C2)C1 (stereo not shown) : reported viability at 28.5 h, 10 µM = ?
91.7

Entry `CCn1nc(C)c(NC(=O)c2ncoc2-c2ccc(F)cc2)c1C` : reported viability at 28.5 h, 10 µM = ?
88

Entry `CN1CCC(N(C)Cc2cc(Cl)ccc2[N+](=O)[O-])CC1` : reported viability at 28.5 h, 10 µM = ?
91.1

Entry `O=C(c1ccno1)N1CCc2ccccc21` : reported viability at 28.5 h, 10 µM = ?
104

Entry `CCc1ccc(-c2csc(NS(=O)(=O)c3cccc(C(=O)O)c3)n2)cc1` : reported viability at 28.5 h, 10 µM = ?
91

Entry `Cc1ccc(-c2nn(CCC#N)cc2C(=O)N2CCCCC2)cc1C` : reported viability at 28.5 h, 10 µM = ?
94.4

Entry `Cc1ncsc1C(=O)N1CCC(c2cccc(Cc3ccccc3Cl)n2)CC1` : reported viability at 28.5 h, 10 µM = ?
99.2

Entry `COc1ccc(CC(=O)N2CCC(c3cccc(Cc4cccc(F)c4)n3)CC2)cc1` : reported viability at 28.5 h, 10 µM = ?
100

Entry COc1ccc(O[C@@H]2CCCC[C@@H]2N2CCCCC2)cc1 [CBK015661C] : reported viability at 28.5 h, 10 µM = ?
90.6

Entry `Cc1ccc(C(=O)Nc2c(C(=O)N3CCN(Cc4ccccc4)CC3)cnn2-c2ccccc2)cc1` : reported viability at 28.5 h, 10 µM = ?
91.1

Entry `OC1(Cn2cnc3ccccc32)CCN(Cc2cccc(F)c2)CC1` : reported viability at 28.5 h, 10 µM = ?
94.9
